Cited source for all entries: paper PMC9454848

# protocol_description: Plasma pharmacokinetics after multiple doses (cycle 2, steady state), LC-MS/MS
# Type: in vivo, human
# test_parameters: human, plasma, oral, multiple doses, Schedule B, 2.0–3.0-mg dose groups; read-out: Geometric mean AUC(0–T), range

compound: Cc1nnn(C)c1-c1cnc2c3ccc(C(C)(C)O)cc3n([C@H](c3ccccc3)C3CCOCC3)c2c1 [BMS-986158]
AUC(0-t): 6320 to 34000 ng·h/mL

###

# protocol_description: Plasma pharmacokinetics after single dose (C1D1), LC-MS/MS
# Format: in vivo, human
# test_parameters: human, plasma, oral, 2 mg, cohort Schedule C, 2.0 mg, n = 6, read-out: Vz/F, GM (%CV)

molecule_smiles: Cc1nnn(C)c1-c1cnc2c3ccc(C(C)(C)O)cc3n([C@H](c3ccccc3)C3CCOCC3)c2c1
Vd/F (L): 13.9

###

# protocol_description: Plasma pharmacokinetics after single dose (C1D1), LC-MS/MS
# Assay type: in vivo, human
# test_parameters: human, plasma, oral, 4.5 mg, cohort Schedule C, 4.5 mg, n = 7, read-out: Tmax, median

molecule_smiles: Cc1nnn(C)c1-c1cnc2c3ccc(C(C)(C)O)cc3n([C@H](c3ccccc3)C3CCOCC3)c2c1
uom: h
Tmax: 2.02

###

# protocol_description: Plasma pharmacokinetics after single dose (C1D1), LC-MS/MS
# Assay type: in vivo, human
# test_parameters: human, plasma, oral, 1.25 mg, cohort Schedule A, 1.25 mg, n = 3, read-out: Vz/F, GM (%CV)

molecule_smiles: Cc1nnn(C)c1-c1cnc2c3ccc(C(C)(C)O)cc3n([C@H](c3ccccc3)C3CCOCC3)c2c1
uom: L
Vd/F: 12.5

###

# protocol_description: Plasma pharmacokinetics after single dose (C1D1), LC-MS/MS
# Assay type: in vivo, human
# test_parameters: human, plasma, oral, 2 mg, cohort Schedule B, 2.0 mg, n = 1, read-out: Effective T1/2, mean (SD) (converted)
measured_parameter: half-life

compound: Cc1nnn(C)c1-c1cnc2c3ccc(C(C)(C)O)cc3n([C@H](c3ccccc3)C3CCOCC3)c2c1 [BMS-986158]
measured_parameter: half-life
value_measured: 44.2 h

###

# protocol_description: Plasma pharmacokinetics after multiple doses (cycle 2, steady state), LC-MS/MS
# Type: in vivo, human
# test_parameters: human, plasma, oral, 0.75 mg, multiple dose, steady state; Schedule A (5 days on, 2 days off), 0.75 mg, n = 3; read-out: AUC(0–24), GM (%CV)
measured_parameter: AUC(0-t) (ng·h/mL)

molecule_smiles: Cc1nnn(C)c1-c1cnc2c3ccc(C(C)(C)O)cc3n([C@H](c3ccccc3)C3CCOCC3)c2c1
uom: ng·h/mL
value_measured: 2720

###

# protocol_description: Plasma pharmacokinetics after single dose (C1D1), LC-MS/MS
# Type: in vivo, human
# test_parameters: human, plasma, oral, 2 mg, cohort Schedule C, 2.0 mg, n = 6, read-out: AUC(0–T), GM (%CV)

molecule_smiles: Cc1nnn(C)c1-c1cnc2c3ccc(C(C)(C)O)cc3n([C@H](c3ccccc3)C3CCOCC3)c2c1
AUC(0-t) (ng·h/mL): 10900

###

# protocol_description: Plasma pharmacokinetics after multiple doses (cycle 2, steady state), LC-MS/MS
# Type: in vivo, human
# test_parameters: human, plasma, oral, 4.5 mg, multiple dose, steady state; Schedule A (5 days on, 2 days off), 4.5 mg, n = 8; read-out: AUC(0–T), GM (%CV)
measured_parameter: AUC(0-t) (ng·h/mL)

compound: Cc1nnn(C)c1-c1cnc2c3ccc(C(C)(C)O)cc3n([C@H](c3ccccc3)C3CCOCC3)c2c1 [BMS-986158]
measured_parameter: AUC(0-t)
uom: ng·h/mL
value_measured: 29500

###

# protocol_description: Plasma pharmacokinetics after multiple doses (cycle 2, steady state), LC-MS/MS
# Type: in vivo, human
# test_parameters: human, plasma, oral, 3 mg, multiple dose, steady state; Schedule C (7 days on, 14 days off), 3.0 mg, n = 8; read-out: AUC(0–T), GM (%CV)
measured_parameter: AUC(0-t) (ng·h/mL)

molecule_smiles: Cc1nnn(C)c1-c1cnc2c3ccc(C(C)(C)O)cc3n([C@H](c3ccccc3)C3CCOCC3)c2c1
uom: ng·h/mL
value_measured: 18300

###

# protocol_description: Plasma pharmacokinetics after single dose (C1D1), LC-MS/MS
# Assay type: in vivo, human
# test_parameters: human, plasma, oral, 1.25 mg, cohort Schedule A, 1.25 mg, n = 3, read-out: Tmax, median

molecule_smiles: Cc1nnn(C)c1-c1cnc2c3ccc(C(C)(C)O)cc3n([C@H](c3ccccc3)C3CCOCC3)c2c1
Tmax [h]: 1

###

# protocol_description: Plasma pharmacokinetics after multiple doses (cycle 2, steady state), LC-MS/MS
# Format: in vivo, human
# test_parameters: human, plasma, oral, multiple doses, Schedule A, 0.75–4.5-mg doses; read-out: Geometric mean AUC(0–T), range
measured_parameter: AUC(0-t)

molecule_smiles: Cc1nnn(C)c1-c1cnc2c3ccc(C(C)(C)O)cc3n([C@H](c3ccccc3)C3CCOCC3)c2c1
measured_parameter: AUC(0-t)
value_measured: 3450 to 29500 ng·h/mL

###

# protocol_description: Plasma pharmacokinetics after single dose (C1D1), LC-MS/MS
# Assay type: in vivo, human
# test_parameters: human, plasma, oral, 4.5 mg, cohort Schedule A, 4.5 mg, n = 10, read-out: AUC(0–T), GM (%CV)
measured_parameter: AUC(0-t)

molecule_smiles: Cc1nnn(C)c1-c1cnc2c3ccc(C(C)(C)O)cc3n([C@H](c3ccccc3)C3CCOCC3)c2c1
value_measured: 19100 ng·h/mL

###

# protocol_description: Plasma pharmacokinetics after single dose (C1D1), LC-MS/MS
# Format: in vivo, human
# test_parameters: human, plasma, oral, 4.5 mg, cohort Schedule C, 4.5 mg, n = 5, read-out: Effective T1/2, mean (SD) (converted)
measured_parameter: half-life

molecule_smiles: Cc1nnn(C)c1-c1cnc2c3ccc(C(C)(C)O)cc3n([C@H](c3ccccc3)C3CCOCC3)c2c1
measured_parameter: half-life
value_measured: 35.7 h

###

# protocol_description: Plasma pharmacokinetics after single dose (C1D1), LC-MS/MS
# Format: in vivo, human
# test_parameters: human, plasma, oral, 3 mg, cohort Schedule A, n = 10
# Protocol: At C1D1 in every dosing schedule cohort, a single dose was administered followed by 168 h (i.e., 7 days) of intensive PK sampling. Following cycle 1, the multiple-dose treatment schedules (described above) began in cycle 2. […] PK assessments were evaluated for BMS-986158 and its metabolite using plasma samples at regular intervals. Both the parent and metabolite samples were simultaneously analyzed using a validated liquid chromatography and tandem mass spectrometry assay. […]
measured_parameter: Cmax (ng/mL)

molecule_smiles: Cc1nnn(C)c1-c1cnc2c3ccc(C(C)(C)O)cc3n([C@H](c3ccccc3)C3CCOCC3)c2c1
value_measured: 328

###

# protocol_description: Plasma pharmacokinetics after multiple doses (cycle 2, steady state), LC-MS/MS
# Type: in vivo, human
# test_parameters: human, plasma, oral, 4.5 mg, multiple dose, steady state; Schedule C (7 days on, 14 days off), 4.5 mg, n = 7; read-out: AUC(0–T), GM (%CV)
measured_parameter: AUC(0-t) (ng·h/mL)

molecule: Cc1nnn(C)c1-c1cnc2c3ccc(C(C)(C)O)cc3n([C@H](c3ccccc3)C3CCOCC3)c2c1 [BMS-986158]
uom: ng·h/mL
value_measured: 20000

###

# protocol_description: Plasma pharmacokinetics after multiple doses (cycle 2, steady state), LC-MS/MS
# Format: in vivo, human
# test_parameters: human, plasma, oral, 3 mg, multiple dose, steady state; Schedule C (7 days on, 14 days off), 3.0 mg, n = 8; read-out: Tmax, median (range)
measured_parameter: Tmax (h)

compound: Cc1nnn(C)c1-c1cnc2c3ccc(C(C)(C)O)cc3n([C@H](c3ccccc3)C3CCOCC3)c2c1 [BMS-986158]
uom: h
value_measured: 1.66

###

# protocol_description: Plasma pharmacokinetics after multiple doses (cycle 2, steady state), LC-MS/MS
# Assay type: in vivo, human
# test_parameters: human, plasma, oral, 3 mg, multiple dose, steady state; Schedule B (14 days on, 7 days off), n = 1

molecule_smiles: Cc1nnn(C)c1-c1cnc2c3ccc(C(C)(C)O)cc3n([C@H](c3ccccc3)C3CCOCC3)c2c1
Cmax / ng/mL: 855

###

# protocol_description: Plasma pharmacokinetics after single dose (C1D1), LC-MS/MS
# Type: in vivo, human
# test_parameters: human, plasma, oral, 2 mg, cohort Schedule B, n = 1

molecule_smiles: Cc1nnn(C)c1-c1cnc2c3ccc(C(C)(C)O)cc3n([C@H](c3ccccc3)C3CCOCC3)c2c1
Cmax / µg/mL: 0.207

###

# protocol_description: Plasma pharmacokinetics after multiple doses (cycle 2, steady state), LC-MS/MS
# Type: in vivo, human
# test_parameters: human, plasma, oral, 2 mg, multiple dose, steady state; Schedule C (7 days on, 14 days off), 2.0 mg, n = 5; read-out: Effective T1/2, mean (SD) (converted)

molecule_smiles: Cc1nnn(C)c1-c1cnc2c3ccc(C(C)(C)O)cc3n([C@H](c3ccccc3)C3CCOCC3)c2c1
half-life (h): 31.6
